# assaySystem: core 2 GlcNAc-T (Mus musculus, UniProt Q09324)
# Construct: heart lysates from either from TNF-alpha over expressing transgenic mice; tissue Taconic-M+B (mice) B6.5JL-Tg (TNF); host or cells: heart lysate of TNF-alpha over-expressing transgenic mice
# Sequence (Q09324 1-428): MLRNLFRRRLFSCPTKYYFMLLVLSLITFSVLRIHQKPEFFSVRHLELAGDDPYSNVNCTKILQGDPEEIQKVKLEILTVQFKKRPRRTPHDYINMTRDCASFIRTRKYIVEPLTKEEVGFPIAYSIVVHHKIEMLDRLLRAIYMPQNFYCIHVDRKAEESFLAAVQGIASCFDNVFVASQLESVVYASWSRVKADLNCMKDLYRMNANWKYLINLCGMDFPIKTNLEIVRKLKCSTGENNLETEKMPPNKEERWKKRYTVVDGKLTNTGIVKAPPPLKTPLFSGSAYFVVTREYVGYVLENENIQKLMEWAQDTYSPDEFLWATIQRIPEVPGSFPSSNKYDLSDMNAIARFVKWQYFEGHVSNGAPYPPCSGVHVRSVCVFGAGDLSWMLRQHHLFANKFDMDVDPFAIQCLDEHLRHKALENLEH
# assayName: Cell free assay of core 2 GlcNAc-T on heart lysates of TNF-α mice
# Assay type: biochemical
# statedConditions: heart lysates of TNF-α mice; read-out: Approximate Ic50 values, Cell free assay
# Protocol: For Glucose induction of Core 2 GlcNAc-T leukocytes (U937 cells) are exposed to normal glucose (5.8 mM) or high glucose (15 mM) for 24 hours at 37° C. […] For TNF-α induction of core 2 GlcNAc-T, Human leukocytes(U937 cells) are exposed to human recombinant TNF-alpha (8 pg/ml) in the presence and absence of test compounds After 24 h incubation, the activity of core 2 GlcNAc-T was measured, and expressed as pmoles/h/mg protein. […] GlcNAc-T is measured, and expressed as pmoles/h/mg protein. […]
Response field label: string, one of Fulfilled (IC50 strictly below 3 nM) or Not fulfilled.

Problem: For the compound CC1=C(CC[C@@H](C)CO[C@@H]2O[C@H](CO)[C@@H](O)[C@H](O)[C@H]2O)O[C@H]2C[C@H]3[C@@H]4CC=C5C[C@@H](O[C@@H]6O[C@H](CO)[C@@H](O[C@@H]7O[C@@H](C)[C@H](O)[C@@H](O)[C@H]7O)[C@H](O)[C@H]6O[C@@H]6O[C@@H](C)[C@H](O)[C@@H](O)[C@H]6O)CC[C@]5(C)[C@H]4CC[C@]3(C)[C@@H]12 , is IC50 under 3 nM?
Not fulfilled

Problem: For the compound C[C@@H](CC[C@@]1(O)O[C@H]2C[C@H]3[C@@H]4CC[C@@H]5C[C@@H](O[C@@H]6O[C@H](CO)[C@@H](O[C@@H]7O[C@H](CO)[C@@H](O)[C@H](O)[C@H]7O)[C@H](O)[C@H]6O[C@@H]6O[C@@H](C)[C@H](O)[C@@H](O)[C@H]6O)CC[C@]5(C)[C@H]4CC[C@]3(C)[C@H]2[C@@H]1C)CO[C@@H]1O[C@H](CO)[C@@H](O)[C@H](O)[C@H]1O , is IC50 under 3 nM?
Fulfilled

Problem: For the compound C[C@@H](CCC1(O)O[C@H]2C[C@H]3[C@@H]4CC=C5C[C@@H](O[C@@H]6O[C@H](CO)[C@@H](O[C@@H]7O[C@H](CO)[C@@H](O)[C@H](O)[C@H]7O)[C@H](O)[C@H]6O[C@@H]6O[C@@H](C)[C@H](O)[C@@H](O)[C@H]6O)CC[C@]5(C)[C@H]4CC[C@]3(C)[C@H]2[C@@H]1C)CO[C@@H]1O[C@H](CO)[C@@H](O)[C@H](O)[C@H]1O (some centres unmarked) [Trigoneoside IVa] , is IC50 under 3 nM?
Fulfilled

Next:
Problem: For the compound C[C@@H]1CC[C@@]2(OC1)O[C@H]1C[C@H]3[C@@H]4CC=C5C[C@@H](O[C@@H]6O[C@H](CO)[C@@H](O)[C@H](O[C@@H]7O[C@H](CO)[C@@H](O)[C@H](O)[C@H]7O)[C@H]6O[C@@H]6O[C@@H](C)[C@H](O)[C@@H](O)[C@H]6O)CC[C@]5(C)[C@H]4CC[C@]3(C)[C@H]1[C@@H]2C , is IC50 under 3 nM?
Not fulfilled
